Data provenance: paper PMC7930286

Assay read-out pIC50; system under study: acetylcholinesterase (AChE) (Homo sapiens).
Sequence (P22303 32-614, species assumed): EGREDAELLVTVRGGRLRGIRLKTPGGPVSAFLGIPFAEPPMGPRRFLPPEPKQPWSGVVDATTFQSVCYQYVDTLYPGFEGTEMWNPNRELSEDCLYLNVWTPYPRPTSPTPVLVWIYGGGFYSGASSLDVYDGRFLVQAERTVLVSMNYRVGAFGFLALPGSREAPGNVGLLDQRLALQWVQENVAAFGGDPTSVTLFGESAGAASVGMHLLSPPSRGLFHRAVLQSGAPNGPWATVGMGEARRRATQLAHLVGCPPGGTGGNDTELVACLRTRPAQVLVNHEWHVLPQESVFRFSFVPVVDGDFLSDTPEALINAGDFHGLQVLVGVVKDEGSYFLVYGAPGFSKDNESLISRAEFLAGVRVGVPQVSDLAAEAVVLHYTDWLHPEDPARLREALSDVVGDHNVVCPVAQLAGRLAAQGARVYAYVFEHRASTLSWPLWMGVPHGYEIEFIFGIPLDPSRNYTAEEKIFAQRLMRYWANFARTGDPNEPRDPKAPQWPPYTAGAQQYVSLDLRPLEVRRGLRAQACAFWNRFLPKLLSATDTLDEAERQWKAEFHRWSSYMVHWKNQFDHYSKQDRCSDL
The read-out pIC50 is expressed as -log10 of concentration in moles per litre.

INSERT INTO assay_data (molecule, observed_value) VALUES
  ('COc1ccc(C(=O)O)cc1OC [Compound VI, 3,4-dimethoxy benzoic acid]', 3.31);

Kindly consider the entry below.
Inquiry: Any idea what pIC50 came out for CCCCCCCOc1ccc(C(=O)O)cc1 [Compound VII, 4-heptyloxy benzoic acid] on acetylcholinesterase (AChE) (Homo sapiens)?
Reply text: 3.42

###

Target: butyrylcholinesterase (BChE) (Homo sapiens, UniProt P06276)
Sequence (P06276 29-602, species assumed): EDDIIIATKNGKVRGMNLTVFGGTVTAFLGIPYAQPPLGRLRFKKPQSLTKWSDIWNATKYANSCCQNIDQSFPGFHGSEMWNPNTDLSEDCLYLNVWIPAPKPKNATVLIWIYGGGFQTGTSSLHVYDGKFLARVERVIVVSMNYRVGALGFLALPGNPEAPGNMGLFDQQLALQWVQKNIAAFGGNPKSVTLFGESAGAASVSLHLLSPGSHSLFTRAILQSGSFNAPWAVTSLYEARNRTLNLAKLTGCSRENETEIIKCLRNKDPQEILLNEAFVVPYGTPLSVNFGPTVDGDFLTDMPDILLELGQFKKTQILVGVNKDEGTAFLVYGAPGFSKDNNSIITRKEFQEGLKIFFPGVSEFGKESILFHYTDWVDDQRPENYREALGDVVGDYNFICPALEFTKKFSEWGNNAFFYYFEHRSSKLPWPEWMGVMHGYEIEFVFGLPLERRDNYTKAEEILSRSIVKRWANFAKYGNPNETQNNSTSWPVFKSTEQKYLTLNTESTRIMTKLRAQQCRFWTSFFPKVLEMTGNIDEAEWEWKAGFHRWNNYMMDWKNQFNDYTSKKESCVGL
QUANTITY KIND: pIC50
The read-out pIC50 is expressed as -log10 of concentration in moles per litre.

Inquiry: So what's the measured pIC50 for this one? CCCCCCCOc1ccc(C(=O)O)cc1
Reply text: 3.42
